# System: RARg:RXRa (NR concentration 270 nM, RXRa partner concentration 90 nM)
# assay.comment: PBM binding z-score (relative to random genomic background probes); higher = stronger binding; sequences stand for … in GC…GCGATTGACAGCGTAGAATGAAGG
measured.attribute: PBM binding z-score
Give bare numbers.

Please review the following examples before continuing.
[[record]]
sequence_entry = "CCTTATGGGTCAAGGTTATAGCACGGGTGGTACG"
numeric_readout = 4.01

[[record]]
sequence_entry = "CCGACTGAGGCATAAGGTTACCATAAGCCAGCCC"
numeric_readout = 0.506

[[record]]
sequence_entry = "ACTAGTTGGTCAGCTGAGGTCTCACACAATTCGG"
numeric_readout = 0.511

[[record]]
sequence_entry = "TCAAGTAGGTTAGTCGGGGCATTCAGCCAACATA"
numeric_readout = 0.431

[[record]]
sequence_entry = "TCTAGTTGATCAAAGGTCACACACTCGAAATGCG"
numeric_readout = 6.54


// moving on: another record for PBM binding z-score
Ask | I would be grateful if you could share the reported PBM binding z-score for `ACAGACAGGTGAGTGAAGGTAACTCATCTGGACG` .
Reply | 0.205

###

# Tested on: PPARg:RXRa 90nM:30nM, anti-RXR (NR concentration 90 nM, RXRa partner concentration 30 nM)
# assay.comment: PBM binding z-score (relative to random genomic background probes); higher = stronger binding; sequences stand for … in GC…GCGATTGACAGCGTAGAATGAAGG
Classification field: enter met for PBM binding z-score values not below 2, not met for values below it.

[[record]]
sequence_entry = "TCTTGGAGATCAGCAGGTTAAGAAAGCTGGCCAA"
class = "not met"

[[record]]
sequence_entry = "GTACCAAGGTGAATACGTCGTTGATGAGTAGGCG"
class = "not met"

[[record]]
sequence_entry = "AGAACGAGGGAACGCTGAGTTGATAGCAGAGTAG"
class = "not met"

[[record]]
sequence_entry = "ATATGTAGGTTACATCCGGGTCAGTCAGGCTATG"
class = "met"

[[record]]
sequence_entry = "ACTTACGGGTCACCGAGGTTATAGCACGCGTATA"
class = "met"


Ask | Decide: PBM binding z-score of `ATCGAAAGGTCGAGGGGAGTATAGAGAAAGGGAA` >= 2?
Reply | met

Ask | Now consider `TGTATGAGGTTATAAGATCAGGGAACGTTGCAAA` .
Reply | not met

Ask | Now consider `TAGCCTAGGTCAGATCGGGCCAGTATGCGCTATA` .
Reply | not met

Ask | Now consider `TTACCTAGGTGAGCTGAGGTCGTTGATCCAACTC` .
Reply | not met

Ask | Now consider `ACTCGGAGTACAAAGGTCAGAGCTACGCCAGTGA` .
Reply | met

Ask | Now consider `TGAACGAGGTTATAAGATCAGGGAACGTTGCAAA` .
Reply | not met

###

# Test system: RARa:RXR (NR concentration 270 nM, RXRa partner concentration 90 nM)
# assay.comment: PBM binding z-score (relative to random genomic background probes); higher = stronger binding; sequences stand for … in GC…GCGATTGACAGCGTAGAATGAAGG
measured.attribute: PBM binding z-score
Answers are plain numbers.

[[record]]
sequence_entry = "CGTCCAAGGTCAATGATAGGTCAGTGAAAGCATT"
numeric_readout = 6.7

[[record]]
sequence_entry = "CCTGCCAGGTCAATGGTCAGCTAAAGCAGCTCGC"
numeric_readout = 1.96

[[record]]
sequence_entry = "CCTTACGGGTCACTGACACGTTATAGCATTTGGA"
numeric_readout = 3.98

[[record]]
sequence_entry = "ACCTCTAGGTAAAGATAGTTCAGTGAATGCAAAT"
numeric_readout = 0.271

[[record]]
sequence_entry = "CGTCAAAGTTCCAGGTAACGTAACAGAAAGCAGC"
numeric_readout = 0.268


Kindly give each listed record's PBM binding z-score.
1. CTGCCTAGGTCAGGGCCAGTATAGGAGGAACGTT
2. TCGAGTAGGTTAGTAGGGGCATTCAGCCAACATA
3. ATCTCTAGGTAAGACTCAGTTCAGTCAAGAACGC
4. GCTTGTAGATCAAGTTTAAGAAAGACTAAGCTAA
5. TCTAATTGGTCACGGAGGTCACACACGACGGGTA

Reply |
1. 0.901
2. 0.287
3. 0.474
4. 0.203
5. 4.76

Kindly give each listed record's PBM binding z-score.
1. CTCGAAAGGTCGTGCTCAGGTGGGTATACCAAAC
2. TCTAGTTGGTCAAAGTTCACACACTCGAAATGCG

Reply |
1: 3.84; 2: 5.1
